Tested on: Klebsiella pneumoniae
Assay conditions: Concentration 32 ug.mL-1;; ASSAY_TEST Inhibition of Bacterial Growth; detection method Absorption (OD600); MEDIA CAMHB; plate type 384well; NBS; CORNING #3640; time 18 hr
Description: Antibacterial activity against Klebsiella pneumoniae MDR ATCC 70063 (CO-ADD:GN_003); MIC in CAMBH media using NBS plates, by OD(600)
Potency and affinity values are given separately.
# maps each entry to its Inhibition
Numeric answer only, unit % assumed.

Solved cases (5 shown):
[
  {
    "Molecule": "O=S(=O)(c1ccc2nncn2c1)N(Cc1cc(F)cc(F)c1)c1ccc(F)c(F)c1",
    "Measurement unit": "%",
    "Recorded result": 12.12
  },
  {
    "Molecule": "CC(C)Cn1c(=O)c2sccc2n2c(=O)n(Cc3ccc(Br)cc3)nc12",
    "Measurement unit": "%",
    "Recorded result": 4.98
  },
  {
    "Molecule": "CC1CC(C)CN(c2nccn3c(=O)n(CC(=O)Nc4cccc(C(F)(F)F)c4)nc23)C1 (centres undefined)",
    "Measurement unit": "%",
    "Recorded result": 12.34
  },
  {
    "Molecule": "CC(C)Cn1c(=O)c2sccc2n2c(=O)n(Cc3ccc(Cl)cc3)nc12",
    "Measurement unit": "%",
    "Recorded result": 2.18
  },
  {
    "Molecule": "Cc1cc(C)cc(N(Cc2ccccc2F)S(=O)(=O)c2cccn3c(C)nnc23)c1",
    "Measurement unit": "%",
    "Recorded result": 2.04
  }
]

Switching to the query record.
Give its Inhibition value. Item: COc1ccccc1-n1ccn2c(SCC(=O)NCc3ccc(Cl)cc3)nnc2c1=O 9.61

* * *

System: Cryptococcus neoformans
Assay conditions: Concentration 32 ug.mL-1; ASSAY_TEST Inhibition of Fungal Growth; detection method Resazurin; Absorption (OD600-OD570); plate type 384well; NBS; CORNING #3640
Description: Antifungal activity against Cryptococcus neoformans H99 ATCC 208821 (CO-ADD:FG_002); MIC in YNB media using NBS plates, by Resazurin OD(600-570)
Potency and affinity values are given separately.
This listing pairs compounds with measured Inhibition.
Quick note: give the figure in %, leave out the unit.

Record request: Inhibition value, item CCc1nnc2ccc(S(=O)(=O)N(Cc3ccc(F)cc3)c3ccc(OC)cc3)cn12 -3.5

I am curious: what Inhibition value has been reported for Cc1ccc(C(=O)C(C)Sc2nnc3c(=O)n(-c4ccc(F)c(F)c4)ccn23)cc1C (stereo not given) ? -3.72

Looking for the measured Inhibition of O=C(Cn1nc2c(N3CCOCC3)nccn2c1=O)NCc1ccccc1Cl , can you help? -5.18

Give its Inhibition value. Item: COC(=O)c1ccc(NC(=O)Cn2nc3c4cc(-c5ccc(OC)cc5)nn4ccn3c2=O)cc1 -33.46

# query: Inhibition of entry Cc1ccc(Oc2nccn3c(=O)n(CC(=O)Nc4cccc(Br)c4)nc23)cc1 -18.68

* * *

System: Klebsiella pneumoniae
Assay conditions: Concentration 32 ug.mL-1;; ASSAY_TEST Inhibition of Bacterial Growth; detection method Absorption (OD600); MEDIA CAMHB; plate type 384well; NBS; CORNING #3640; time 18 hr
Measured potencies and affinities stand elsewhere.
Reported metric: Inhibition (%)
A number alone suffices; assume %.

[
  {
    "Chemical structure": "O=c1c2nn(Cc3ccccc3Cl)c(=O)n2ccn1-c1ccccc1",
    "System": "Klebsiella pneumoniae",
    "Inhibition (%)": 1.78
  },
  {
    "Chemical structure": "COc1ccc(NC(=O)Cn2nc3ccc(SC(C)(C)C)nn3c2=O)cc1OC",
    "System": "Klebsiella pneumoniae",
    "Inhibition (%)": 16.54
  },
  {
    "Chemical structure": "CCOC(=O)c1ccc(NC(=O)Cn2nc3c(SC4CCCCC4)nccn3c2=O)cc1",
    "System": "Klebsiella pneumoniae",
    "Inhibition (%)": 11.88
  },
  {
    "Chemical structure": "CCOc1ccc(NC(=O)Cn2nc3c(Sc4cccc(F)c4)nccn3c2=O)cc1",
    "System": "Klebsiella pneumoniae",
    "Inhibition (%)": -0.38
  }
]

Kindly review the next molecule as well.
# get_value(readout='Inhibition', item= CCOC(=O)c1ccccc1NC(=O)Cn1nc2ccc(C(=O)Nc3ccc(OC)cc3)cn2c1=O ) -1.54

* * *

Tested on: Candida albicans
Assay conditions: Concentration 32 ug.mL-1; ASSAY_TEST Inhibition of Fungal Growth; detection method Absorption (OD530)
Description: Antifungal activity against Candida albicans ATCC 90028 (CO-ADD:FG_001); MIC in YNB media using NBS plates, by OD630
Measured potencies and affinities stand elsewhere.
Reported metric: Inhibition

Previously resolved entries follow.
[
  {
    "Compound": "Cc1oc(-c2ccccc2)nc1CSc1nc2ccccc2n2c(C(C)C)nnc12",
    "Inhibition": "6.41%"
  },
  {
    "Compound": "CCOC(=O)C1CCN(c2nc3ccccc3n3c(=O)n(CC(=O)Nc4ccccc4F)nc23)CC1",
    "Inhibition": "13.18%"
  },
  {
    "Compound": "COc1ccccc1-n1ccn2c(SCc3ccc(Cl)cc3)nnc2c1=O",
    "Inhibition": "1.6%"
  },
  {
    "Compound": "O=C(CSc1nnc2c3cc(-c4ccccc4)nn3ccn12)NCc1ccc(Cl)cc1",
    "Inhibition": "6.05%"
  },
  {
    "Compound": "CCC(Sc1nnc2c(=O)n(-c3cccc(OC)c3)ccn12)C(=O)Nc1cc(OC)cc(OC)c1 (stereo not given)",
    "Inhibition": "-0.37%"
  },
  {
    "Compound": "Cc1ccc(-c2ccc3nn(CC(=O)Nc4ccc(C(C)C)cc4)c(=O)n3n2)cc1C",
    "Inhibition": "3.46%"
  },
  {
    "Compound": "CCc1ccc(N(Cc2ccccc2)S(=O)(=O)c2cccn3c(CC)nnc23)cc1",
    "Inhibition": "13.04%"
  },
  {
    "Compound": "COc1cccc(-n2ccn3c(SCc4cc(C)ccc4C)nnc3c2=O)c1",
    "Inhibition": "2.61%"
  },
  {
    "Compound": "CC(C)c1nnc2c(=O)n(CC(=O)Nc3cccc(Cl)c3)c3ccccc3n12",
    "Inhibition": "3.06%"
  },
  {
    "Compound": "COc1cccc(-n2ccn3c(SCC(=O)NCc4ccc(Cl)cc4)nnc3c2=O)c1",
    "Inhibition": "0.82%"
  }
]

Recorded Inhibition for Cc1cc2nn(CC(=O)Nc3ccc(F)c(F)c3)c(=O)n2c(Nc2ccc(F)c(C)c2)n1 , please? 1.57%

Item Cc1cc(C)cc(NC(=O)Cn2nc3ccc(SCc4ccc(Cl)cc4)nn3c2=O)c1 has what recorded Inhibition? 46.75%

Using the record for O=C(Cn1nc2c(SCc3ccc(Cl)cc3)nccn2c1=O)Nc1ccccc1F , report its Inhibition. 1.79%

# get_value(readout='Inhibition', item= COc1cccc(Oc2nccn3c(=O)n(CC(=O)Nc4ccc(C(C)C)cc4)nc23)c1 ) 3.55%

Inhibition for COc1ccc(CNC(=O)CCc2nnc3c(N4CCCCC4)nc4ccccc4n23)cc1OC ? 6.91%

Value lookup for Inhibition; key = COc1ccc(Cn2nc3ccc(-c4ccc(Cl)cc4)nn3c2=O)cc1F 0.27%

What value of Inhibition has been recorded for this entry: O=C(Cn1nc2c(N3CCOCC3)nccn2c1=O)Nc1ccc(Cl)cc1F 2.13%

* * *

System: Candida albicans
Assay conditions: Concentration 32 ug.mL-1; ASSAY_TEST Inhibition of Fungal Growth; detection method Absorption (OD530)
Entries with a potency or affinity are not part of this list.
Recorded Inhibition for the following compounds
Give the number; % is assumed, so skip it.

Reference set (3 entries):
[
  {
    "Chemical structure": "COc1ccccc1CNC(=O)Cn1nc2c(N3CCC(C)CC3)nccn2c1=O",
    "Inhibition / %": 4.39
  },
  {
    "Chemical structure": "Cc1ccc(NC(=O)Cn2nc3ccc(SC(C)(C)C)nn3c2=O)c(C)c1",
    "Inhibition / %": 1.14
  },
  {
    "Chemical structure": "Cc1ccc(-c2ccc3nn(CC(=O)Nc4ccc(Br)cc4)c(=O)n3n2)cc1C",
    "Inhibition / %": 10.19
  }
]

// lookup Inhibition | system=Candida albicans | key= Cc1cccc(Cn2nc3n(CCc4ccccc4)c(=O)c4sccc4n3c2=O)c1 -1.37

For the record CCN(CCCNC(=O)CCc1nnc2ccc(-c3ccccc3)nn12)c1ccccc1 , what value of Inhibition is listed for Candida albicans? 3.75

Query for Candida albicans: what Inhibition does the record show for COc1ccccc1NC(=O)Cn1nc2c3cc(-c4ccc(Cl)cc4)nn3ccn2c1=O ? 8.08

Provide value of Inhibition for this record tested with Candida albicans: CC(C)c1ccc(Oc2nc3ccccc3n3c(=O)n(CC(=O)Nc4ccc5c(c4)OCO5)nc23)cc1 1.68

Give Inhibition (Candida albicans) of the following compound: O=c1n(Cc2cccc(C(F)(F)F)c2)nc2ccc(S(=O)(=O)N3CCCC3)cn12 0.2

I'm curious: which Inhibition was measured for CCOc1ccc(N(Cc2ccc(F)cc2)S(=O)(=O)c2ccc3nncn3c2)cc1 tested on Candida albicans? 3.15

Please tell me: Inhibition of Cc1nnc2ccc(S(=O)(=O)N(Cc3cccc(F)c3)c3ccc(Cl)cc3)cn12 , system Candida albicans? -0.68
